# credit: ChEMBL document CHEMBL1153442

- measured-on: Caspase-7 (Homo sapiens)
- Sequence (P55210 24-198 limits assumed): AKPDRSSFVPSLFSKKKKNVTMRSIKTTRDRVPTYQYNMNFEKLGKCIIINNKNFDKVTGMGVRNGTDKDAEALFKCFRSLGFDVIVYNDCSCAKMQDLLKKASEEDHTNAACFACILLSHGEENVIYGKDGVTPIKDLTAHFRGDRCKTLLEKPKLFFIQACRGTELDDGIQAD
- Sequence (P55210 207-303 limits assumed): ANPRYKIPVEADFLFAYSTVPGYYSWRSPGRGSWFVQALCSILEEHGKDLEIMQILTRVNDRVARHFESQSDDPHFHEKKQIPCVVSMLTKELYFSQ
- assay-notes: Inhibition of human recombinant caspase 7 assessed as accumulation of fluorogenic product by fluorometric assay
pIC50 values, listed per item
// scale note: pIC50 = -log10(conc_M); give the bare number

Sample records with pIC50:
{"compound": "N#CC(C#N)=C1C(=O)N(Cc2ccc(Cl)c(Cl)c2)c2ccc(S(=O)(=O)N3CCC3)cc21", "assay-endpoint": "pIC50", "observed-result": 6.47}
{"compound": "N#CC(C#N)=C1C(=O)N(Cc2ccccc2)c2ccc(S(=O)(=O)N3CCC3)cc21", "assay-endpoint": "pIC50", "observed-result": 6.61}
{"compound": "COc1ccc(CN2C(=O)C(=C(C#N)C#N)c3cc(S(=O)(=O)N4CCSCC4)ccc32)cc1", "assay-endpoint": "pIC50", "observed-result": 5.72}

Suppose we examine the molecule O=C1C(=O)N(Cc2ccccc2)c2ccc(S(=O)(=O)N3CCSCC3)cc21 ; what pIC50 value has been reported? 5.83
